- Experiment description: inhibition of 3D7 malaria parasite growth – strain 3D7 (AID 2306);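 note: 0% = DMSO wells and 100% = chloroquine plus artemisinin control wells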
- Protocol conditions: P. falciparum 3D7 erythrocytic growth, LDH absorbance, 72 h; at 2 µM; hits give high values
Here, each record is paired with measured growth inhibition data.
// return numeric value only (unit: %, not printed)

Molecule	growth inhibition, %
c1ccn2c(Sc3ncnc4sccc34)ncc2c1	100
CCOc1cc(C(=O)N[C@@H](Cc2ccccc2)[C@H](O)CNCc2cccc(OC)c2)cc(N2CCCCS2(=O)=O)c1	97
COc1ccc(OCCCN2CCN(CC(c3ccc(F)cc3)N3CCN(C(C)C)CC3)CC2)c2ccccc12 (stereo unspecified)	100
COc1ccc(C(=O)N2CCC3(CC2)C(=O)N(CC(=O)NCC2CCCCC2)CN3c2ccccc2)cc1	100

Query :: Hello, please tell me recorded growth inhibition for this one: O=C(Nc1ccc(Oc2ccccc2)cc1)N[C@H]1CCN(Cc2ccc(OCCCN3CCCCC3)cc2)C1
Result :: 103

Query :: Retrieve growth inhibition measured for COc1cc(CCNc2nc(NCc3ccccc3-c3ccccc3)nc(N3CCC(N)CC3)n2)ccc1O and print it.
Result :: 100

Query :: // fetch growth inhibition given entry Cc1cc(C)c(CON2C(N)=NC(N)=NC2(C)C)cc1C
Result :: 92

Query :: Specify reported growth inhibition for the molecule shown: CC(=O)c1c(Cc2ccccc2Cl)c[nH]c1C
Result :: 95

###

- System under test: Calcium-dependent protein kinase 4 (Plasmodium falciparum (isolate 3D7)) (UniProt Q8IBS5)
- Sequence (Q8IBS5 whole entry, looked up): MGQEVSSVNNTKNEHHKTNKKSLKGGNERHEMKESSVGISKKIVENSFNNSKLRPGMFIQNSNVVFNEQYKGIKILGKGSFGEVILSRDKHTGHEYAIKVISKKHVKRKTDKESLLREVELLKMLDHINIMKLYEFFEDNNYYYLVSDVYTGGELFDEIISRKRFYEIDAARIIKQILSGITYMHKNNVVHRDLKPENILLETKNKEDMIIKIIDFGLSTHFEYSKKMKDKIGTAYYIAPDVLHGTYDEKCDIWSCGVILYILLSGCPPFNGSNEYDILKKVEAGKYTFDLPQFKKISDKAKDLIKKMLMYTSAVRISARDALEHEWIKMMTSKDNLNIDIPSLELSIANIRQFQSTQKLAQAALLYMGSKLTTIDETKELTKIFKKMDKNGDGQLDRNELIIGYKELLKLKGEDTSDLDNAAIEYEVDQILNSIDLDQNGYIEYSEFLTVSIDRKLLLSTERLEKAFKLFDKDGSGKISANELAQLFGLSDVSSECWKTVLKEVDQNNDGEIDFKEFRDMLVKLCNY
- Experiment description: PfCDPK4 kinase inhibitors, biochemical, TCAMS library (AID 1159588)
- Protocol conditions: recombinant PfCDPK4, Kinase-Glo ATP depletion luminescence
Potency and affinity values are given separately. Active and inactive are the calls of the source. The limit is not given here; nearly all actives have IC50 up to about 0.91 µM.
Readout name: outcome

Look over these answered cases.
Compound	Result
COCC(C)n1c(SCC(=O)Nc2cc(C(F)(F)F)ccc2Cl)nc2ccccc2c1=O (stereo not given)	inactive
CCCC(C)NC[C@@H](O)[C@H](Cc1ccccc1)NC(=O)c1cc(C2CCCC2)cc(N2CCCCS2(=O)=O)c1 (stereo not given in full)	inactive
COc1ccc(Nc2nc(NCc3cccnc3)cc(-c3ccc(OC)cc3)n2)cc1	inactive
O=C(Nc1ccc(C(F)(F)F)cc1)NC1CCN(c2ccnc3cc(Cl)ccc23)CC1	inactive

Query :: Please report the measured outcome for COc1ccc(CNCc2ccc(F)cc2)cc1-c1ccc(S(=O)(=O)NCCN2CCCC2)s1
Result :: inactive

###

- Experiment description: antimalarial activity against Dd2 strain (AID 2302);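 note: 0% = DMSO untreated growth and 100% = chloroquine plus artemisinin killed control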
- Protocol conditions: P. falciparum Dd2 in RBCs, LDH growth readout, 72 h; at 2 µM
The source made the active and inactive calls.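 How the source made its calls: active means growth inhibition above 50% at the single 2 µM test dose, taken to imply half-maximal potency below 2 µM; inactive means the rest.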
Your response should consist of one outcome taken from active, inactive

Please review the following examples before continuing.
Molecule	Class
CCc1cccc(NC(=O)/C=C/c2ccc3c(c2)CN(C)CC3)c1	active
COc1ccc(Br)cc1/C=C/C(=O)Nc1ccc(C2CCCN(C)C2)cc1 (stereo not given)	inactive
Nc1ncc(-c2ccc(NC(=O)Nc3cc(C(F)(F)F)ccc3F)cc2)c(N)n1	inactive
CN1CCCc2ccc(NC(=O)Nc3ccc(-c4ccccc4)cc3)cc2C1	inactive

Query :: What was the test verdict on Oc1c(Cl)cc(Nc2nccc(Nc3ccc(Oc4ccccc4)cc3)n2)cc1Cl ?
Result :: inactive

###

- System under test: L-lactate dehydrogenase (Plasmodium falciparum (isolate CDC / Honduras))
- Experiment description: PfLDH activity inhibition – cell lysate, 3D7 strain, counter-screen for P. falciparum growth inhibition project (AID 2304);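 note: 0% = vehicle and 100% = reference inhibitor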
- Protocol conditions: P. falciparum 3D7 crude extract, LDH APAD/NBT absorbance; at 2 µM; hits give high values
inhibition by entry:
Lab book: enter the figure in %, no units written.

Molecule	Readout name	Units text	Result number
CC(C)(C)c1ccc(OC(=O)c2ccc(NC(=O)N[C@@H](Cc3ccc(O)cc3)C(=O)NC3CCN(Cc4ccc(O)cc4)C3)cc2)cc1 (some centres undefined)	inhibition	%	-3
Cc1onc(-c2ccc(Cl)cc2)c1-c1ccnn1S(=O)(=O)c1ccc(Cl)cc1	inhibition	%	3
Cn1cnc2c(SCc3ccccc3OCc3ccccc3)ncnc21	inhibition	%	-3
COc1ccc(-c2csc3ncnc(Cl)c23)cc1	inhibition	%	5
CN1CC[C@@H](Oc2cc(NC(=O)Nc3ccccc3Br)ccc2Cl)C1	inhibition	%	0

Query :: Return reported inhibition. Input molecule: Cc1cc(C2CCN(CCCCNC(=O)c3ccc(-c4ccc(C(F)(F)F)cc4)cc3)CC2)c(C)cc1OCCOC1CCCCO1 (centres undefined)
Result :: -7

Query :: Supply recorded inhibition for O=C(C1CCCCC1)N1CCOC(CCN2CCC(c3ccccc3)CC2)(c2ccc(Cl)c(Cl)c2)C1 (centres undefined) here.
Result :: 6

Query :: Please supply the value of reported inhibition for the item NC(=O)c1cccc(C(=O)Nc2ccc(-c3cccc(-c4nc5ccc(F)cc5[nH]4)c3)cc2)c1
Result :: -5

Query :: Please indicate inhibition recorded for COc1cc2nc(N3CCN(C(=O)c4c(Cl)nsc4-c4ccccc4Cl)CC3)nc(N)c2cc1OC
Result :: -6

###

- System under test: Protein kinase 7 (PK7), Plasmodium falciparum 3D7 (PF3D7_0213400) (UniProt Q7YTF7)
- Experiment description: inhibition of Plasmodium PK7 catalytic activity – biochemical, TCAMS antimalarial set, Kinase-Glo luminescence (AID 1159587)
- Protocol conditions: recombinant PfPK7, Kinase-Glo ATP depletion luminescence
Calls of active or inactive are those of the source. The rule behind the calls is not given here.
Readout name: outcome

Look over these answered cases.
Molecule	System under test	Result
CCOc1ccc(N2C(N)=NC(N)=NC2(C)C)cc1	Protein kinase 7 (PK7), Plasmodium falciparum 3D7 (PF3D7_0213400) (UniProt Q7YTF7)	inactive
Cc1cccc(-n2c(Nc3ccc(C)c(Cl)c3)nc3ccc(S(=O)(=O)NC(C)C(C)C)cc32)c1 (stereo not given)	Protein kinase 7 (PK7), Plasmodium falciparum 3D7 (PF3D7_0213400) (UniProt Q7YTF7)	inactive
Cc1cc(N[C@@H](Cc2ccccc2)C(=O)NCc2cccc(F)c2)nc(NCCc2cccnc2)n1	Protein kinase 7 (PK7), Plasmodium falciparum 3D7 (PF3D7_0213400) (UniProt Q7YTF7)	inactive
CNCCNCc1cccc(-c2ccc(-c3nc4ccc(C(F)(F)F)cc4[nH]3)s2)c1	Protein kinase 7 (PK7), Plasmodium falciparum 3D7 (PF3D7_0213400) (UniProt Q7YTF7)	inactive

Query :: Answer with the recorded outcome for the molecule listed here: O=C(Nc1ccc(-c2nc3ccccc3[nH]2)cc1)c1ccc(S(=O)(=O)N2CCCCC2)cc1
Result :: inactive

###

- System under test: Plasmodium falciparum protein kinase 6 (PK6, PF3D7_1337100) (UniProt Q8IDW1)
- Experiment description: PfPK6 kinase inhibitors, biochemical, TCAMS library (AID 1159586)
- Protocol conditions: recombinant PfPK6, Kinase-Glo ATP depletion luminescence
Results with a measured potency or affinity are listed apart. The source made the active and inactive calls. No rule for the calls is given here.
Readout name: outcome

Compound	Result
CCOc1ccccc1C(=O)N1CCc2cc3nccc(N4CCN5CCC[C@H]5C4)c3cc21	inactive
Cc1cc(=O)oc2c1ccc1oc(C(O)c3ccc(Cl)cc3)c(C)c12 (stereo not given)	inactive
NC(=O)c1cccc(Nc2nccc(Nc3ccc(Oc4ccc5ccccc5c4)cc3)n2)c1	inactive
CC1(C)CC(NC(=O)NC2CCN(Cc3ccccc3)CC2)CC(C)(CNC(=O)NC2CCN(Cc3ccccc3)CC2)C1 (stereo not given)	inactive

Let us examine a further case.
Query :: Supply outcome value. Item: Cc1[nH]c(C)c(-c2ccc(-c3ccccc3Cl)nc2)c(=O)c1Cl
Result :: inactive

###

- Experiment description: antimalarial activity against Dd2 strain (AID 2302);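 note: 0% = DMSO untreated growth and 100% = chloroquine plus artemisinin killed control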
- Protocol conditions: P. falciparum Dd2 in RBCs, LDH growth readout, 72 h; at 2 µM; hits give high values
Calls of active or inactive are those of the source.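 How the source made its calls: active means growth inhibition above 50% at the single 2 µM test dose, taken to imply half-maximal potency below 2 µM; inactive means the rest.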
Readout name: growth inhibition

Example results:
Compound	Result
O=C1CC(C(=O)O)CC(=O)N1	88% (active)
CC(=O)Nc1nnc(SCc2c(C)cc(C(C)(C)C)cc2C)s1	91% (active)
COc1cccc(NC(=O)Cn2c(C)c(C#N)c3ccccc32)c1	100% (active)
CC1(C)N=C(N)N=C(N)N1OCCCc1ccccc1	94% (active)
COc1ccc([N+](=O)[O-])cc1N(Cc1ccccc1-c1ccccc1)S(=O)(=O)c1ccc(C(F)(F)F)cc1[N+](=O)[O-]	92% (active)
O=C(Nc1ccc2c(c1)CCN2C1CCN(Cc2csc3ccccc23)C1)c1ccco1 (stereo not given)	95% (active)
Cc1cc(NCCCOc2ccc(Cl)cc2)nc(NCc2ccccc2)n1	20% (inactive)
COc1cc2c(cc1OC)CN(CCCCc1ccc(NC(=O)c3cc(Cl)cc(Cl)c3)cc1)CC2	4% (inactive)
Cc1c(C)n(C2CCCC2)c2ncnc(OC3CCN(CC(=O)NC4CC4)CC3)c12	92% (active)
COc1cccc(Cc2c(C)nc3nc(N)nc(N)c3c2C)c1	1% (inactive)

Let's switch to this compound now.
Query :: Consider the compound COc1ccc(OC)c2c1CCN(C)C2Cc1cccc2ccccc12 (stereo not given) . State its measured growth inhibition.
Result :: 79% (active)
